Sourced from ChEMBL document CHEMBL4312021

Tested on: Mus musculus
Assay: Anticonvulsant activity in Kunming mouse assessed as reduction in ScPTZ-induced seizure at 30 mg/kg, ip administered before 30 mins of ScPTZ stimulation
Format: functional, organism-based
The source made the active and inactive calls. The calls are words filed in the database; no cut-off is given here.
Please state which outcome applies, choosing from active, inactive

Lab log entry: "O=c1cc(Cc2ccc(Cl)cc2)[nH]c2nc(Cc3ccc(F)cc3)nn12" — outcome as called in the assay?
inactive

Lab log entry: "O=c1cc(-c2ccccc2)[nH]c2nc(Cc3ccccc3)nn12" — outcome as called in the assay?
active

Lab log entry: "Cc1ccc(Cc2cc(=O)n3nc(-c4ccc(C)cc4)nc3[nH]2)cc1" — outcome as called in the assay?
inactive

Lab log entry: "CCCCCc1nc2[nH]c(-c3ccc(Cl)cc3)cc(=O)n2n1" — outcome as called in the assay?
active

Lab log entry: "Cc1ccc(-c2nc3[nH]c(Cc4ccccc4)cc(=O)n3n2)cc1" — outcome as called in the assay?
active

Lab log entry: "CCCCc1nc2[nH]c(-c3ccc(Cl)cc3)cc(=O)n2n1" — outcome as called in the assay?
inactive

Lab log entry: "Cc1ccc(-c2nc3[nH]c(Cc4ccc(Cl)cc4)cc(=O)n3n2)cc1" — outcome as called in the assay?
inactive

Lab log entry: "O=c1cc(Cc2ccc(Cl)cc2)[nH]c2nc(Cc3ccccc3)nn12" — outcome as called in the assay?
inactive

Lab log entry: "O=c1cc(Cc2ccccc2)[nH]c2nc(Cc3ccccc3)nn12" — outcome as called in the assay?
inactive

Lab log entry: "O=c1cc(Cc2ccc(Cl)cc2)[nH]c2nc(-c3ccccc3)nn12" — outcome as called in the assay?
active
